Origin of measurements: ChEMBL document CHEMBL3881528

Test system: Liver
Assay: Covalent protein binding in rat liver at 25 to 75 […], po using radio-labeled compound measured at 6 hrs by scintillation counting method
Assay type: ADME, organism-based
Details: in vivo
assay_metric: PB (pmolequiv/mg)
Numeric only. Scale: pmolequiv/mg

| smiles_data | assay_metric | unit_descriptor | recorded_number |
| --- | --- | --- | --- |
| C=C[C@@H]1C[C@]1(NC(=O)[C@@H]1C[C@@H]2CN1C(=O)[C@H](C(C)(C)C)NC(=O)O[C@@H]1C[C@H]1CCCCCc1nc3ccc(OC)cc3nc1O2)C(=O)[N-]S(=O)(=O)C1CC1.[K+] | PB | pmolequiv/mg | 3 |
| C=C[C@@H]1C[C@]1(NC(=O)[C@@H]1C[C@@H]2CN1C(=O)[C@H](C(C)(C)C)NC(=O)O[C@@H]1CCC[C@H]1CCCCCc1nc3ccc(OC)cc3cc1O2)C(=O)NS(=O)(=O)C1CC1 | PB | pmolequiv/mg | 24 |
| C=C[C@@H]1C[C@]1(NC(=O)[C@@H]1C[C@@H]2CN1C(=O)[C@H](C1CCCC1)NC(=O)O[C@@H]1CCC[C@H]1CCCCCc1nc3ccccc3nc1O2)C(=O)NS(=O)(=O)C1CC1 | PB | pmolequiv/mg | 38 |

With those in mind, consider the next compound.
Which PB is reported for this compound? `C=C[C@@H]1C[C@]1(NC(=O)[C@@H]1C[C@@H]2CN1C(=O)[C@H](C1CCCC1)NC(=O)O[C@@H]1CCC[C@H]1CCCCCc1nc3ccccc3cc1O2)C(=O)NS(=O)(=O)C1CC1`
63

====

Reported PB values for the following molecules.
Tested on: Plasma
Test: Covalent protein binding in rat plasma at 25 to 75 […], po using radio-labeled compound measured at 6 hrs by scintillation counting method
Assay type: ADME, organism-based
# unit: pmolequiv/mg | format: bare number

Some solved entries appear below for comparison.
| smiles_data | PB (pmolequiv/mg) |
| --- | --- |
| C=C[C@@H]1C[C@]1(NC(=O)[C@@H]1C[C@@H]2CN1C(=O)[C@H](C1CCCC1)NC(=O)O[C@@H]1CCC[C@H]1CCCCCc1nc3ccccc3cc1O2)C(=O)NS(=O)(=O)C1CC1 | 6 |
| C=C[C@@H]1C[C@]1(NC(=O)[C@@H]1C[C@@H]2CN1C(=O)[C@H](C1CCCC1)NC(=O)O[C@@H]1CCC[C@H]1CCCCCc1nc3ccccc3nc1O2)C(=O)NS(=O)(=O)C1CC1 | 15 |

What measured PB goes with `C=C[C@@H]1C[C@]1(NC(=O)[C@@H]1C[C@@H]2CN1C(=O)[C@H](C(C)(C)C)NC(=O)O[C@@H]1CCC[C@H]1CCCCCc1nc3ccc(OC)cc3cc1O2)C(=O)NS(=O)(=O)C1CC1` ?
6

Quick one: PB for `C=C[C@@H]1C[C@]1(NC(=O)[C@@H]1C[C@@H]2CN1C(=O)[C@H](C(C)(C)C)NC(=O)O[C@@H]1C[C@H]1CCCCCc1nc3ccc(OC)cc3nc1O2)C(=O)[N-]S(=O)(=O)C1CC1.[K+]` ?
3
